assay: Half life in rat at 10 mg/kg, iv; assay type: ADME, organism-based; parameters: dose 10 mg/kg, route intravenous; conditions: in vivo

- COMPOUND: "Cl.c1ccc(C2CC3(N4CCCC4)CNCC2C(c2ccccc2)C3)cc1 (racemic)"
  half-life: "18 min"

---

biological target: hERG (KCNH2) (Homo sapiens, UniProt Q12809); experiment: Inhibition of human ERG expressed in HEK293 cells assessed as reduction in tail current at 3 uM and at membrane potential of +20 mV; assay type: cell-based; settings: HEK293 cells that express hERG

- COMPOUND: "Cl.c1ccc(C2CC3(N4CCCC4)CNCC2C(c2ccccc2)C3)cc1 (racemic)"
  inhibition at 3 µM, %: 54.8

---

biological target: hERG (KCNH2) (Homo sapiens, UniProt Q12809); assay: Inhibition of human ERG expressed in HEK293 cells assessed as reduction in tail current at 3 uM and at membrane potential of +0 mV; format: cell-based; conditions: HEK293 cells that express hERG

- MOLECULE: "Cl.c1ccc(C2CC3(N4CCCC4)CNCC2C(c2ccccc2)C3)cc1 (racemic)"
  UNIT_DESCRIPTOR: "%"
  inhibition at 3 µM: 45.9

---

molecular target: Voltage-gated inwardly rectifying potassium channel KCNH2 (Homo sapiens, UniProt Q12809); test: Inhibition of human ERG expressed in HEK293 cells assessed as reduction in tail current at membrane potential of +20 mV; format: cell-based
Sequence (Q12809 whole entry): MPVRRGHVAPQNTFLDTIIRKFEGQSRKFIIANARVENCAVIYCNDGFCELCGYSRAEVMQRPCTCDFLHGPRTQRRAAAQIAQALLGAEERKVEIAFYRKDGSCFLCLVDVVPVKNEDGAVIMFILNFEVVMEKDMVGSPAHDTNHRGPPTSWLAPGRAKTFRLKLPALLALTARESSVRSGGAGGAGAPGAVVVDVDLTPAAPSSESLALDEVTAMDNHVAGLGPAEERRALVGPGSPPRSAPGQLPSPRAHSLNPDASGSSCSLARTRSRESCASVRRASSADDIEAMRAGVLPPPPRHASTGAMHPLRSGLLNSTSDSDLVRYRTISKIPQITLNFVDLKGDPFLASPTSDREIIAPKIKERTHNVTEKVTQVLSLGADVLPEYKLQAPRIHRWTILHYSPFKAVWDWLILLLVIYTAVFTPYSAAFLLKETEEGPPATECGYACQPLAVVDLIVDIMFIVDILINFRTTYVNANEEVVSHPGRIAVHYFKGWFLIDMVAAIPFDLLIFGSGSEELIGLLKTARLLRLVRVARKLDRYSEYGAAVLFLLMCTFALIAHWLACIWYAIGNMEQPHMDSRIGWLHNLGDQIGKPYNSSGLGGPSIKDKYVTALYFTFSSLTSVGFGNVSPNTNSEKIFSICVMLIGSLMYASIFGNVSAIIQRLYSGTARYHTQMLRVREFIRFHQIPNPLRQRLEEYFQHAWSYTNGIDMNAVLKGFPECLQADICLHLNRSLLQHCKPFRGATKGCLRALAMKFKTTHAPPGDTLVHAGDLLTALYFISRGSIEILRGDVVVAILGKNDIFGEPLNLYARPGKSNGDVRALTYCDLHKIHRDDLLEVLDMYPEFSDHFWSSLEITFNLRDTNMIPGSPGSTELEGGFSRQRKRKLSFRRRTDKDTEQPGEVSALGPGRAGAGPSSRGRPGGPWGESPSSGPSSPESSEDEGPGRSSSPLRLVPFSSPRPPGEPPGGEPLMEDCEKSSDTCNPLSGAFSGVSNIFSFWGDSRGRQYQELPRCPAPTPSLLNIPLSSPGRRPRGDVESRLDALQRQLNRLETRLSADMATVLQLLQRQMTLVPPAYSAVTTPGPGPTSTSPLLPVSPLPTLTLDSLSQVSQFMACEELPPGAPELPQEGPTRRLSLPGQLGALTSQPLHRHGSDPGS
pIC50: −log10 of the molar value.

- COMPOUND: "Cl.c1ccc(C2CC3(N4CCCC4)CNCC2C(c2ccccc2)C3)cc1 (racemic)"
  pIC50: 5.58

---

tested on: Plasmodium falciparum; experiment: Antiplasmodial activity against chloroquine and pyrimethamine resistant Plasmodium falciparum K1 infected in human red blood cells assessed as reduction in parasite viability after 48 hrs by [3H]-hypoxanthine incorporation assay; type: functional, organism-based
Some compounds, each annotated with its measured IC50.

- COMPOUND: "Cl.c1ccc(C2CC3(N4CCOCC4)CCNC2C(c2ccccc2)C3)cc1 (racemic)"
  QUAL: "="
  IC50 / nM: 6840
- COMPOUND: "CN(C)C12CNCC(C(c3ccc(Cl)cc3)C1)C(c1ccc(Cl)cc1)C2.Cl (stereo not given)"
  QUAL: "="
  IC50 / nM: 770
- COMPOUND: "Cl.O=C1CC2(N3CCOCC3)CC(c3ccccc3)C(N1)C(c1ccccc1)C2 (racemic)"
  QUAL: ">"
  IC50 / nM: 13300
- COMPOUND: "C[C@@H]1CC[C@H]2[C@@H](C)C(=O)O[C@@H]3O[C@@]4(C)CC[C@@H]1[C@]32OO4 [ARTEMISININ]"
  QUAL: "="
  IC50 / nM: 6.4
- COMPOUND: "Cl.c1ccc(C2CC3(N4CCCCC4)CNCC2C(c2ccccc2)C3)cc1 (racemic)"
  QUAL: "="
  IC50 / nM: 750
- COMPOUND: "Cl.O=C1NCC2(N3CCOCC3)CC(c3ccccc3)C1C(c1ccccc1)C2 (stereo not given)"
  QUAL: ">"
  IC50 / nM: 13300
- COMPOUND: "Cl.c1ccc(C2CC3(N4CCCC4)CNCC2C(c2ccccc2)C3)cc1 (racemic)"
  QUAL: "="
  IC50 / nM: 95
- COMPOUND: "CN(C)C12CNCC(C(c3ccccc3)C1)C(c1ccccc1)C2.Cl (racemic)"
  QUAL: "="
  IC50 / nM: 270
- COMPOUND: "Cl.c1ccc(C2CC3(N4CCOCC4)CNCC2C(c2ccccc2)C3)cc1 (racemic)"
  QUAL: "="
  IC50 / nM: 650
- COMPOUND: "Cl.Clc1ccc(C2CC3(N4CCCCC4)CNCC2C(c2ccc(Cl)cc2)C3)cc1 (racemic)"
  QUAL: "="
  IC50 / nM: 370

---

test: Selectivity index, ratio of CC50 for rat L6 cells to IC50 for chloroquine and pyrimethamine resistant Plasmodium falciparum K1; format: functional
Some compounds, each annotated with its measured Ratio IC50.

- COMPOUND: "Cl.c1ccc(C2CC3(N4CCOCC4)CNCC2C(c2ccccc2)C3)cc1 (racemic)"
  Ratio IC50: 66.63
- COMPOUND: "Cl.Clc1ccc(C2CC3(N4CCCCC4)CNCC2C(c2ccc(Cl)cc2)C3)cc1 (racemic)"
  Ratio IC50: 21.86
- COMPOUND: "Cl.O=C1CC2(N3CCOCC3)CC(c3ccccc3)C(N1)C(c1ccccc1)C2 (racemic)"
  Ratio IC50: 18
- COMPOUND: "Cl.c1ccc(C2CC3(N4CCOCC4)CCNC2C(c2ccccc2)C3)cc1 (racemic)"
  Ratio IC50: 30.22
- COMPOUND: "Cl.O=C1NCC2(N3CCOCC3)CC(c3ccccc3)C1C(c1ccccc1)C2 (stereo not given)"
  Ratio IC50: 18
- COMPOUND: "CN(C)C12CNCC(C(c3ccccc3)C1)C(c1ccccc1)C2.Cl (racemic)"
  Ratio IC50: 452.2
- COMPOUND: "CN(C)C12CNCC(C(c3ccc(Cl)cc3)C1)C(c1ccc(Cl)cc1)C2.Cl (stereo not given)"
  Ratio IC50: 11.63
- COMPOUND: "Cl.c1ccc(C2CC3(N4CCCCC4)CNCC2C(c2ccccc2)C3)cc1 (racemic)"
  Ratio IC50: 163.1
- COMPOUND: "Cl.O=C1CC2(N3CCCC3)CC(c3ccccc3)C(N1)C(c1ccccc1)C2 (racemic)"
  Ratio IC50: 28.5
- COMPOUND: "Cl.c1ccc(C2CC3(N4CCCC4)CNCC2C(c2ccccc2)C3)cc1 (racemic)"
  Ratio IC50: 767.7

---

experiment: Selectivity index, ratio of CC50 for rat L6 cells to IC50 for Trypanosoma brucei rhodesiense STIB900; type: functional
Label met when Ratio IC50 is at or above 30; anything below gets not met.

- MOLECULE: "Cl.Clc1ccc(C2CC3(N4CCCCC4)CNCC2C(c2ccc(Cl)cc2)C3)cc1 (racemic)"
  ANSWER_LABEL: "not met"
- MOLECULE: "Cl.O=C1NCC2(N3CCOCC3)CC(c3ccccc3)C1C(c1ccccc1)C2 (stereo not given)"
  ANSWER_LABEL: "not met"
- MOLECULE: "Cl.O=C1CC2(N3CCCCC3)CC(c3ccccc3)C(N1)C(c1ccccc1)C2 (racemic)"
  ANSWER_LABEL: "not met"
- MOLECULE: "Cl.c1ccc(C2CC3(N4CCCCC4)CNCC2C(c2ccccc2)C3)cc1 (racemic)"
  ANSWER_LABEL: "met"
- MOLECULE: "CN(C)C12CC(=O)NC(C(c3ccccc3)C1)C(c1ccccc1)C2.Cl (racemic)"
  ANSWER_LABEL: "not met"

---

system: Trypanosoma brucei rhodesiense; assay: Antitrypanosomal activity against Trypanosoma brucei rhodesiense STIB900 bloodstream forms after 72 hrs by alamar blue assay; assay type: functional, organism-based; conditions: STIB900, 72 h
pIC50: −log10 of the molar value.

- MOLECULE: "Cl.c1ccc(C2CC3(N4CCCCC4)CNCC2C(c2ccccc2)C3)cc1 (racemic)"
  pIC50: 5.69
- MOLECULE: "Cl.c1ccc(C2CC3(N4CCOCC4)CCNC2C(c2ccccc2)C3)cc1 (racemic)"
  pIC50: 5.03
- MOLECULE: "Cl.Clc1ccc(C2CC3(N4CCCCC4)CNCC2C(c2ccc(Cl)cc2)C3)cc1 (racemic)"
  pIC50: 6.49
- MOLECULE: "CN(C)C12CNCC(C(c3ccc(Cl)cc3)C1)C(c1ccc(Cl)cc1)C2.Cl (stereo not given)"
  pIC50: 6.47
- MOLECULE: "Cl.O=C1NCC2(N3CCOCC3)CC(c3ccccc3)C1C(c1ccccc1)C2 (stereo not given)"
  pIC50: 3.89
- MOLECULE: "Cl.O=C1CC2(N3CCOCC3)CC(c3ccccc3)C(N1)C(c1ccccc1)C2 (racemic)"
  pIC50: 3.86
- MOLECULE: "Cl.c1ccc(C2CC3(N4CCCC4)CNCC2C(c2ccccc2)C3)cc1 (racemic)"
  pIC50: 6.00
- MOLECULE: "Cl.Clc1ccc(C2CC3(N4CCCC4)CNCC2C(c2ccc(Cl)cc2)C3)cc1 (racemic)"
  pIC50: 6.59
- MOLECULE: "Cl.c1ccc(C2CC3(N4CCOCC4)CNCC2C(c2ccccc2)C3)cc1 (racemic)"
  pIC50: 5.42
- MOLECULE: "CN(C)C12CNCC(C(c3ccccc3)C1)C(c1ccccc1)C2.Cl (racemic)"
  pIC50: 5.80

Cited source: ChEMBL document CHEMBL3400138
